Origin of values: the supplement of paper PMC9732359

Experiment: protein stability index of a GFP-peptide fusion (yeast GPS) (PSI 1-4); higher = more stable; sorted into four equal gates, so the index is relative within each strain
Conditions: ubr1∆
protein stability index by entry:
Response field accepts a number only; no unit should be typed.

Take a look at these entries with their results.
{"macromolecule-sequence": "TIEQSPRMIELMEFLCV [ECM29]", "assay-value": 3.25}
{"macromolecule-sequence": "NQFKRIDTLLYLMTYPQ [RET1]", "assay-value": 1.55}
{"macromolecule-sequence": "YLYCLDNNITEMLEENF [YCG1]", "assay-value": 2.73}

protein stability index reading for INYLALNAANYNIDANV [ECM29] : 2.72

protein stability index reading for LITVMEKSPDPTIRSNA [YCS4] : 2.57

protein stability index reading for SDIIILKGEIEDYPMSS [SIR4] : 3.48
